MEASUREMENT_DESCRIPTION: qHTS Assay for Lipid Storage Modulators (AID 1519)
REPORTED_CONDITIONS: Drosophila S3 cells, BODIPY lipid droplet/cell ratio, laser cytometry; measured here: lipid channel max response; cells loaded with oleic acid
Records with an inconclusive call do not appear.
Recorded max response, one value per entry.
PROPERTY_LABEL: max response

[
  {
    "ENTRY_SMILES": "N#Cc1ccc(CN2CCC3(CC2)CCN(C(=O)c2cc(C(F)(F)F)cc(C(F)(F)F)c2)CC3)cc1",
    "MEAS_VALUE": "11%"
  },
  {
    "ENTRY_SMILES": "CC(C)CN1CCC2(CC1)CCN(C(=O)c1ccncc1)CC2",
    "MEAS_VALUE": "14.7%"
  },
  {
    "ENTRY_SMILES": "Cc1ccccc1-c1ccc2ncnc(N3CCNCC3)c2c1",
    "MEAS_VALUE": "8.2%"
  },
  {
    "ENTRY_SMILES": "Cn1cccc1C(=O)N1CCC[C@@]2(CCN(C(=O)Nc3cccc(C#N)c3)C2)C1",
    "MEAS_VALUE": "24.9%"
  },
  {
    "ENTRY_SMILES": "COc1cccc(-c2cc(NCc3cccc(C)c3)ncn2)c1",
    "MEAS_VALUE": "-6.01%"
  },
  {
    "ENTRY_SMILES": "COc1ccc(CNc2ncnc3ccc(-c4ccc(N(C)C)cc4)cc23)c(OC)c1",
    "MEAS_VALUE": "-24.8%"
  },
  {
    "ENTRY_SMILES": "CCN(CC)CCC[C@H](C)Nc1c2ccc(Cl)cc2nc2ccc(OC)cc12",
    "MEAS_VALUE": "-13%"
  },
  {
    "ENTRY_SMILES": "CN1CCN(c2ncc3nc(-c4cccc(C#N)c4)c(=O)n(C)c3n2)CC1",
    "MEAS_VALUE": "0.284%"
  },
  {
    "ENTRY_SMILES": "c1ccc2c(N3CCNCC3)nc(-c3ccoc3)nc2c1",
    "MEAS_VALUE": "17.6%"
  },
  {
    "ENTRY_SMILES": "O=S(=O)(c1ccccc1)N1CCC2(CCN(c3ccncc3)CC2)CC1",
    "MEAS_VALUE": "17%"
  }
]

Cited source for all entries: PubChem BioAssay (NCATS)
